- assay_info: IAM-HPLC affinity to phospholipids (CHI protocol)
- Assay type: physicochemical
- condition_details: IAM column, pH 7.4, ACN gradient
quantity_name: CHIIAM

• CC1CCC(C(C)C)C(OC(=O)CCCCN2CCN(c3cc4c(cc3F)c(=O)c(C(=O)O)cn4C3CC3)CC2)C1 (stereo not drawn) = 48.95
• Cc1ccc(C(C)C)c(OC(=O)CCCCCOC(=O)c2cn(C3CC3)c3cc(N4CCN(CCCCCC(=O)Oc5cc(C)ccc5C(C)C)CC4)c(F)cc3c2=O)c1 = 49.33
• CC1CCC(C(C)C)C(OC(=O)CCN2CCN(c3cc4c(cc3F)c(=O)c(C(=O)O)cn4C3CC3)CC2)C1 (stereo not drawn) = 49.56

###

- assay_info: IAM-HPLC affinity to phospholipids (CHI protocol)
- Format: physicochemical
- condition_details: 0.045*CHIIAM+0.42
quantity_name: log kIAM

- CC(C)[C@@H]1CC[C@@H](C)C[C@H]1OC(=O)CCCCCN1CCN(c2cc3c(cc2F)c(=O)c(C(=O)O)cn3C2CC2)CC1 [Compound 6]: 2.74
- Cc1ccc(C(C)C)c(OC(=O)CCCOC(=O)c2cn(C3CC3)c3cc(N4CCN(CCCC(=O)Oc5cc(C)ccc5C(C)C)CC4)c(F)cc3c2=O)c1 [Compound 15]: 2.47
- Cc1ccc(C(C)C)c(OC(=O)CCCN2CCN(c3cc4c(cc3F)c(=O)c(C(=O)O)cn4C3CC3)CC2)c1 [Compound 12]: 2.48
- Cc1ccc(C(C)C)c(OC(=O)CCCCCN2CCN(c3cc4c(cc3F)c(=O)c(C(=O)O)cn4C3CC3)CC2)c1 [Compound 14]: 2.68
- CC1CCC(C(C)C)C(OC(=O)CCCCOC(=O)c2cn(C3CC3)c3cc(N4CCN(CCCCC(=O)OC5CC(C)CCC5C(C)C)CC4)c(F)cc3c2=O)C1 (stereo not drawn) [Compound 7]: 2.92
- Cc1ccc(C(C)C)c(OC(=O)CCCCCOC(=O)c2cn(C3CC3)c3cc(N4CCN(CCCCCC(=O)Oc5cc(C)ccc5C(C)C)CC4)c(F)cc3c2=O)c1 [Compound 16]: 2.64
- CC1CCC(C(C)C)C(OC(=O)CCCCN2CCN(c3cc4c(cc3F)c(=O)c(C(=O)O)cn4C3CC3)CC2)C1 (stereo not drawn) [Compound 5]: 2.62
- CC1CCC(C(C)C)C(OC(=O)CCCCCOC(=O)c2cn(C3CC3)c3cc(N4CCN(CCCCCC(=O)OC5CC(C)CCC5C(C)C)CC4)c(F)cc3c2=O)C1 (stereo not drawn) [Compound 8]: 3.02
- Cc1ccc(C(C)C)c(OC(=O)CCN2CCN(c3cc4c(cc3F)c(=O)c(C(=O)O)cn4C3CC3)CC2)c1 [Compound 11]: 2.42
- CC1CCC(C(C)C)C(OCC(=O)N2CCN(c3cc4c(cc3F)c(=O)c(C(=O)O)cn4C3CC3)CC2)C1 (stereo not drawn) [Compound 1]: 2.47
- CC1CCC(C(C)C)C(OC(=O)CN2CCN(c3cc4c(cc3F)c(=O)c(C(=O)O)cn4C3CC3)CC2)C1 (stereo not drawn) [Compound 2]: 2.53
- CC1CCC(C(C)C)C(OC(=O)CCN2CCN(c3cc4c(cc3F)c(=O)c(C(=O)O)cn4C3CC3)CC2)C1 (stereo not drawn) [Compound 3]: 2.65
- CC1CCC(C(C)C)C(OC(=O)CCCN2CCN(c3cc4c(cc3F)c(=O)c(C(=O)O)cn4C3CC3)CC2)C1 (stereo not drawn) [Compound 4]: 2.82
- Cc1ccc(C(C)C)c(OCC(=O)N2CCN(c3cc4c(cc3F)c(=O)c(C(=O)O)cn4C3CC3)CC2)c1 [Compound 9]: 2.38
- Cc1ccc(C(C)C)c(OC(=O)CCCCN2CCN(c3cc4c(cc3F)c(=O)c(C(=O)O)cn4C3CC3)CC2)c1 [Compound 13]: 2.53

###

- assay_info: physchem
- Type: physicochemical
- condition_details: C18 column, pH 7.4, ACN gradient
- Description: For HPLC analyses Prominence-1 LC-2030C 3D HPLC system (Shimadzu, Japan) equipped with a DAD detector and controlled by LabSolution system (version 5.90 Shimadzu, Japan) was used. Two different chromatography columns packed with surface-modified silica were utilized in this study: • Octyldecylsilane (C18 Hypersil GOLD™; 50 mm × 4.6 mm; 5.0 µm; Thermo Scientific, USA) • Immobilized artificial membrane (IAM.PC.DD2; 10 × 4.6 mm × 10.0 µm; Regis Technologies; USA). […]
quantity_name: CHIC18

- CC(C)[C@@H]1CC[C@@H](C)C[C@H]1OC(=O)CCCCCN1CCN(c2cc3c(cc2F)c(=O)c(C(=O)O)cn3C2CC2)CC1: 139.48
- Cc1ccc(C(C)C)c(OC(=O)CCCOC(=O)c2cn(C3CC3)c3cc(N4CCN(CCCC(=O)Oc5cc(C)ccc5C(C)C)CC4)c(F)cc3c2=O)c1: 135.98
- Cc1ccc(C(C)C)c(OC(=O)CCCCCOC(=O)c2cn(C3CC3)c3cc(N4CCN(CCCCCC(=O)Oc5cc(C)ccc5C(C)C)CC4)c(F)cc3c2=O)c1: 144.84
- CC1CCC(C(C)C)C(OC(=O)CCCCN2CCN(c3cc4c(cc3F)c(=O)c(C(=O)O)cn4C3CC3)CC2)C1 (stereo not drawn): 134.85
- Cc1ccc(C(C)C)c(OC(=O)CCN2CCN(c3cc4c(cc3F)c(=O)c(C(=O)O)cn4C3CC3)CC2)c1: 113.95
- Cc1ccc(C(C)C)c(OC(=O)CCCN2CCN(c3cc4c(cc3F)c(=O)c(C(=O)O)cn4C3CC3)CC2)c1: 115.60

###

- assay_info: physchem
- Type: physicochemical
- condition_details: pH 7.4
Mark t only for chromatographic logD values smaller than 5; exact matches and larger values are f.

• CC1CCC(C(C)C)C(OC(=O)CCCCOC(=O)c2cn(C3CC3)c3cc(N4CCN(CCCCC(=O)OC5CC(C)CCC5C(C)C)CC4)c(F)cc3c2=O)C1 (stereo not drawn) [Compound 7] = f
• Cc1ccc(C(C)C)c(OC(=O)CCCOC(=O)c2cn(C3CC3)c3cc(N4CCN(CCCC(=O)Oc5cc(C)ccc5C(C)C)CC4)c(F)cc3c2=O)c1 [Compound 15] = f
• Cc1ccc(C(C)C)c(OC(=O)CCCCN2CCN(c3cc4c(cc3F)c(=O)c(C(=O)O)cn4C3CC3)CC2)c1 [Compound 13] = t
• CC1CCC(C(C)C)C(OC(=O)CCCCCOC(=O)c2cn(C3CC3)c3cc(N4CCN(CCCCCC(=O)OC5CC(C)CCC5C(C)C)CC4)c(F)cc3c2=O)C1 (stereo not drawn) [Compound 8] = f
• Cc1ccc(C(C)C)c(OCC(=O)N2CCN(c3cc4c(cc3F)c(=O)c(C(=O)O)cn4C3CC3)CC2)c1 [Compound 9] = f
• Cc1ccc(C(C)C)c(OC(=O)CCCN2CCN(c3cc4c(cc3F)c(=O)c(C(=O)O)cn4C3CC3)CC2)c1 [Compound 12] = t
